Origin of the recorded values: patent US20200024322A1

Here, each record is paired with measured pKi data.
Biological target: T1, human GIP receptor (human, UniProt P48546 22-466)
T1 construct: whole, on cells; Used as crude membranes of stably transfected CHO cells; also called hGIPR
T1 sequence (looked up): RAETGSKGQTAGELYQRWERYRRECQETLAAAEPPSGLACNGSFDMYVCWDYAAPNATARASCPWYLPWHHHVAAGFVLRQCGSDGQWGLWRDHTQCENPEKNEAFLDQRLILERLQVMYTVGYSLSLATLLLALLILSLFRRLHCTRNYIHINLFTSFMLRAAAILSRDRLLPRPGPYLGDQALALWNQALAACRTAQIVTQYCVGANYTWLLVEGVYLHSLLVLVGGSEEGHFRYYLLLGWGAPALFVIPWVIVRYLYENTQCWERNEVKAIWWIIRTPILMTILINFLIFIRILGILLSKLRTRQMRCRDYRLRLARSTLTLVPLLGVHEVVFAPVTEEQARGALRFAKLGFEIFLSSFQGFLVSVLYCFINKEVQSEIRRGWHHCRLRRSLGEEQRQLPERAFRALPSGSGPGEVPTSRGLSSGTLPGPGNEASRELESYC
Assay: SPA, [125I]-GIP displacement, hGIPR membranes
Numbered stars: 1 amine (or outer) side, 2 acyl side, 3 side chain; on linkers, the order of the positions; unused ones are H or OH. Square brackets hold non-standard residues; d marks the D form. Side chains are listed from the residue outwards. Ends that are not written are not given here. * marks the point of attachment. C20 diacid = O=C(O)CCCCCCCCCCCCCCCCCCC(=O)*; γGlu = O=C(O)[C@H](CCC(=O)[*:2])N[*:1]; αMeF = C[C@](N)(Cc1ccccc1)C(=O)O; αMeL = CC(C)C[C@](C)(N)C(=O)O; αMeK = C[C@](N)(CCCCN)C(=O)O; Dab = NCC[C@H](N)C(=O)O; cTA = not defined here; AEEA = NCCOCCOCC(=O)O; Aib = CC(C)(N)C(=O)O
Lab note — pKi values are minus log10 of concentrations in M.

Some solved entries appear below for comparison.
>  <binder>
YXEGTXTSDASIXLDKKAQXAFIEYLIEGGPSSGAPPPS (Aib2; αMeF6; αMeL13; K17((2-[2-(2-Amino-ethoxy)-ethoxy]-acetyl)2-(γ-Glu)-CO-(CH2)18-CO2H); Aib20; C-terminal NH2) [Example 145]

>  <result>
10.19

$$$$
>  <binder>
Y[Aib][cTA]GT[αMeF]TSDYSI[αMeL]LDEK([AEEA-AEEA-γGlu-C20 diacid])AQ[Aib]AFIEYLIEGGPSSGAPPPS-NH2 (reading uncertain) [Example 120]

>  <result>
9.96

$$$$
>  <binder>
YXEGTXTSDYSIXLDKKAQXXFIEYLIEGGPSSGAPPPS (Aib2; αMeF6; αMeL13; K17((2-[2-(2-Amino-ethoxy)-ethoxy]-acetyl)2-(γ-Glu)-CO-(CH2)18-CO2H); Aib20; Aad21; C-terminal NH2) [Example 137]

>  <result>
10.43

$$$$
>  <binder>
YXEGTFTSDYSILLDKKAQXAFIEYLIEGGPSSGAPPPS (αMePro2; K17((2-[2-(2-Amino-ethoxy)-ethoxy]-acetyl)2-(γ-Glu)-CO-(CH2)18-CO2H); Aib20; C-terminal NH2) [Example 87]

>  <result>
10.47

$$$$
>  <binder>
YXEGTXTSDISILLDKKAQXAFIEYLIEGGPSSGAPPPS (Aib2; αMeF6; K17((2-[2-(2-Amino-ethoxy)-ethoxy]-acetyl)2-(γ-Glu)-CO-(CH2)18-CO2H); Aib20; C-terminal NH2) [Example 127]

>  <result>
9.90

$$$$
>  <binder>
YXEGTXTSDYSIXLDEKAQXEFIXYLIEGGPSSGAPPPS (Aib2; αMeF(2F)6; αMeL13; K17((2-[2-(2-Amino-ethoxy)-ethoxy]-acetyl)2-(γ-Glu)-CO-(CH2)18-CO2H); Aib20; Aib24; C-terminal NH2) [Example 152]

>  <result>
9.93

$$$$

Return the recorded pKi value; entry: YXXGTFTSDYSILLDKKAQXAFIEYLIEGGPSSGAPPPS (Aib2; Aad3; K17((2-[2-(2-Amino-ethoxy)-ethoxy]-acetyl)2-(γ-Glu)-CO-(CH2)18-CO2H); Aib20; C-terminal NH2) [Example 89]
10.35

Return the recorded pKi value; entry: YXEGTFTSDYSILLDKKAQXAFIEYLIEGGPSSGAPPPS (Aib2; K17((2-[2-(2-Amino-ethoxy)-ethoxy]-acetyl)-(γ-Glu)-(Trx)-CO-(CH2)18-CO2H); Aib20; C-terminal NH2) [Example 110]
10.40

Return the recorded pKi value; entry: YXEGTXTSDYSIXLDKKAQXTFIEYLIEGGPSSGAPPPS (Aib2; αMeF6; αMeL13; K17((2-[2-(2-Amino-ethoxy)-ethoxy]-acetyl)2-(γ-Glu)-CO-(CH2)18-CO2H); Aib20; C-terminal NH2) [Example 139]
10.44

Return the recorded pKi value; entry: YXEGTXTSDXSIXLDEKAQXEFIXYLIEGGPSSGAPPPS (Aib2; αMeF(2F)6; 4Pal10; αMeL13; K17((2-[2-(2-Amino-ethoxy)-ethoxy]-acetyl)2-(γ-Glu)-CO-(CH2)18-CO2H); Aib20; Aib24; C-terminal NH2) [Example 189]
9.89

Return the recorded pKi value; entry: YXEGTFTSDYSIXLDSKAQXAFIEYLLEGGPSSGAPPPS (Aib2; αMeL13; K17((2-[2-(2-Amino-ethoxy)-ethoxy]-acetyl)2-(γ-Glu)-CO-(CH2)18-CO2H); Aib20; C-terminal NH2) [Example 61]
9.99

Return the recorded pKi value; entry: H[Aib]EGTFTSDYSI[αMeL]LDKK([Dab-AEEA-Dab-AEEA-C20 diacid])AQ[αMeK]AFIQYLLA[Aib]GPSSGAPKPS-NH2 [Example 18]
10.10
